- System: DU-145
- procedure_text: Cytotoxicity against human DU145 cells assessed as growth inhibition
- Type: functional
Provide the reported GI50 of each item.
Respond numerically; units are nM and should not be typed.

Q) Identify the measured GI50 of Cc1cc(/C=C2\Cc3c([nH]c4ccccc34)C2=O)cc(C)c1O for DU-145.
A) 2050

Q) Identify the measured GI50 of Cc1cc(/C=C2\CCc3c(n(C)c4ccccc34)C2=O)cc(C)c1O for DU-145.
A) 1850

Q) Identify the measured GI50 of Cc1cc(/C=C2\CCc3c([nH]c4ccccc34)C2=O)cc(C)c1O for DU-145.
A) 540

Q) Identify the measured GI50 of COc1cc2c(c(N)c1OC)C(=O)/C(=C\c1cc(C)c(O)c(C)c1)C2 for DU-145.
A) 10
